Test system: HIV-1 LAI
Method description: microbe, parasite or virus in culture
Condition summary: Compound 1 + named drug, EC50 ratio 1:2.5 (Compound 1:comparator); 95% confidence interval in parentheses
Description: Virus and cell lines. The T-cell lines, MT-2 and PM-1 were obtained through the AIDS Research and Reference Reagent Program, NIAID, and were contributed by Dr. D. Richman and Dr. R. Gallo, respectively. […] Drug Susceptibility and Cytotoxicity Assays. […] On day-five post-infection, 20 μl from each well was harvested and quantitated by a reverse transcriptase (RT) assay, or in samples involving non-nucleoside RT inhibitors, an MTS assay. […] Cell viability was determined by an MTS assay. […]
Exercise: for every item that follows, state its recorded Combination Indices at % HIV Inhibition (Confidence Interval) 90%.

Worked set:
- Compound: "Cc1cccc(C)c1OCC(=O)N[C@@H](Cc1ccccc1)[C@@H](O)C[C@H](Cc1ccccc1)NC(=O)[C@H](C(C)C)N1CCCNC1=O [Lopinavir, lopinavir]"
  Result: "1.00 (0.60, 1.40)"
- Compound: "CC(C)(C)NC(=O)[C@@H]1C[C@@H]2CCCC[C@@H]2CN1C[C@@H](O)[C@H](Cc1ccccc1)NC(=O)[C@H](CC(N)=O)NC(=O)c1ccc2ccccc2n1 [Saquinavir, saquinavir]"
  Result: "0.77 (0.56, 0.97)"
- Compound: "Nc1ccn([C@@H]2CS[C@H](CO)O2)c(=O)n1 [Lamivudine, lamivudine]"
  Result: "0.39 (0.21, 0.58)"
- Compound: "Nc1ccn([C@H]2CC[C@@H](CO)O2)c(=O)n1 [Zalcitabine, zalcitabine]"
  Result: "0.65 (0.43, 0.86)"

With those in mind, consider the next compound.
Any idea what Combination Indices at % HIV Inhibition (Confidence Interval) 90% was measured for Nc1nc(=O)n([C@@H]2CS[C@H](CO)O2)cc1F [Emtricitabine, emtricitabine] ?
0.67 (0.36, 0.99)

This collection of values is drawn from patent US7776863B2.
